Where do the numbers come from? From PubChem BioAssay.

# z-score listing for each entry below
Molecular target: Homeobox protein Hox-A13 (Mus musculus) (UniProt Q62424)
Sequence (Q62424 whole entry, looked up): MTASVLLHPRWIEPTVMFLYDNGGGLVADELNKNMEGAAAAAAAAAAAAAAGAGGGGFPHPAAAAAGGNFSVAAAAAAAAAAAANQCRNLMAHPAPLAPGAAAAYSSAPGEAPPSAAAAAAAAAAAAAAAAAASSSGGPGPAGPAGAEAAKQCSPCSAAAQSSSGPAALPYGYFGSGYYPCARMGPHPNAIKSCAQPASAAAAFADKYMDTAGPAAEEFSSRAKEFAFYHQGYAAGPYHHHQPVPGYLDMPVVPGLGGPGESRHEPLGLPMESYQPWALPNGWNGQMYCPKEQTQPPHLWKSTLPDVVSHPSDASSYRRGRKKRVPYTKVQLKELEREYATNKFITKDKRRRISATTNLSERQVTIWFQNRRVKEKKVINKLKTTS
Assay: disruptors of Hoxa13 oligonucleotide interaction – biochemical, fluorescence polarization, labeled oligonucleotide, primary screen (AID 1185)
Details: Hoxa13:DNA binding, 15 min, higher = more signal, called active from +8 up or from −8 down
Enter a number only.

Solved cases below.
molecule=CCCC=C(CCC)[C@@H](NC(=O)Cc1ccccc1)c1ccc(C(=O)OC)cc1 readout_name=z-score measured_result=-1.93
molecule=COCCCNC(=O)[C@@]1(C)c2ccccc2C(=O)N(c2ccc(C)cn2)[C@H]1c1ccc(CO)cc1 readout_name=z-score measured_result=-1.9
molecule=CN(C)CCCNC(=O)[C@@]1(Cc2ccccc2I)c2ccccc2C(=O)N(Cc2ccccc2Cl)[C@H]1c1ccc(CO)cc1 readout_name=z-score measured_result=-0.316

// next item, z-score requested
Record CC(C)C(CO)N1C(=O)[C@@H]2[C@H]3C(=O)OCC=C[C@H]3OC23C=CCN(Cn2nnc4ccccc42)C(=O)[C@@H]13 (some centres undefined) . Reported z-score: -3.05
